# key: entry, value: recombinant barcode read abundance (log10)
# testProtocol: recombinant barcode read abundance after kanamycin selection (control-corrected) (log10(CPM+1)); higher = more efficient recombination; sequences stand for … in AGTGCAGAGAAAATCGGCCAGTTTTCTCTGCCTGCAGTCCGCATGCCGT…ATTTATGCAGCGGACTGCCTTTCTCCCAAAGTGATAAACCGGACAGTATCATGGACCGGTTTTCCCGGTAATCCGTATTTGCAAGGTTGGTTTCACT; site = the 11-nt target
// no unit, no text: just the number

Record excerpt, results attached:
- recordSequence: "AGGAGGTCTTGGGTTCTAACCTGTTGCCTTG [AGGAGGTCTAG_LTGcore_CT_RTGcore_CA] (site AGGAGGTCTAG) (LTG core: CT, RTG core: CA)"
  quantitativeResult: 0.336
- recordSequence: "TCGCGACACTGGGTTCTAACCTGTTGCCGAG [TCGCGACCTCG_LTGcore_AC_RTGcore_CT] (site TCGCGACCTCG) (LTG core: AC, RTG core: CT)"
  quantitativeResult: 0.0715

Let us examine a further case.
(Q) Return reported recombinant barcode read abundance (log10). Input sequence: ACGGGACCTTGGGTTCTAACCTGTTGCAGCA [ACGGGACCTCT_LTGcore_CT_RTGcore_TG] (site ACGGGACCTCT) (LTG core: CT, RTG core: TG)
(A) 0.0129
